test description: NCI Yeast Anticancer Drug Screen. Data for the bub3 strain (AID 167)
condition description: S. cerevisiae bub3 mutant strain, at 50.0 µM, active compounds read high
Protocol: Growth inhibition of yeast strains with defined genetic alterations is measured as a screen for potential anti-cancer activity. Selected strains with alterations in DNA damage repair or cell cycle control were exposed to compounds and growth inhibition was measured relative to vehicle treated controls. The strain used in this assay is bub3
Compounds without any hit were thinned out: in the full panel of roughly 79,000, 15% have a hit.
Entries and their measured growth inhibition follow.
experimental readout: growth inhibition (%)

compound	measurement
Oc1ccc(NCc2ccccc2)cc1	21.6
COCc1ccccc1P(c1ccccc1COC)c1ccccc1COC	10.5
N#CCOc1ccc(Cl)cc1	1.8
CNS(=O)(=O)c1c(C)cccc1CC(=O)c1ccccc1	14.8
COC(=O)CC(C)(O)CCCC(C)C (configuration not stated)	3.9
CC[P+]1(c2ccccc2)[C@@H](C)CC[C@@H]1C	3.75
CC(C)N(C(=O)C12C3C4C5(C#N)C3C1(C#N)C5C42C#N)C(C)C (configuration not stated)	-0.7
Nc1ncnc2c1ncn2[C@@H]1C[C@H]1CO	20.6
CC(=O)OCC1OC(n2c(-c3ccccc3)c(N=Nc3ccccc3)c(C)c(C#N)c2=S)C(OC(C)=O)C(OC(C)=O)C1OC(C)=O (configuration not stated)	2.55
CN(C)c1ccc(C2(c3ccc(N(C)C)cc3)NNC(=O)c3ccccc32)cc1	21.1
Cc1cc(S(=O)(=O)Nc2nc(N)n(C)n2)c(S)cc1Cl	-29.2
Cc1cccc(/C=C/c2cccc[n+]2[O-])[n+]1[O-]	-0.2
CC1(C)CC(N2CCN(C3CC(C)(C)NC(C)(C)C3)CC2)CC(C)(C)N1	-14.2
O=C(c1ccccc1)C(O)(Cc1ccccc1)c1ccccc1 (configuration not stated)	14.4
COC(=O)C[C@](O)(CCCC(C)(C)O)C(=O)O[C@@H]1C(OC)=C[C@]23CCCN2CCc2cc4c(cc2[C@H]13)OCO4	43.3
CCOc1ccc2[nH]c(C)c(CC(=O)O)c2c1	9.3
Fc1nc2nc(C(F)(F)F)[nH]c2nc1F	0.85
COC(=O)C(Nc1ccc(OC)cc1)c1ccccc1 (configuration not stated)	4
CCO/C=C\C(OCC)OCC	18.2
O=C1c2cn[nH]c2N=C(Nc2ccccc2)C1N=Cc1ccc([N+](=O)[O-])cc1 (configuration not stated)	-24.3
Nc1ccc(O)c(N=Nc2ccc(S(N)(=O)=O)cc2)c1	18.1
COc1ccc(C(C)=O)cc1	29.9
CCCCCCCC(=O)Oc1cccc(C)c1	-7.35
O=C(NC1CC1)c1ccccc1	1.85
O=CCC(=O)c1ccc(Br)cc1	-11.7
O=C1C2(CCCC13N=NCC3c1ccccc1)N=NCC2c1ccccc1 (configuration not stated)	0.85
COc1ccc(C2C3=C(CCCC3=O)N(c3ccccc3)C3=C2C(=O)CCC3)cc1	7.4
CCOC(=O)c1cc(C)nc2c1c(=O)n(-c1ccccc1)c(=O)n2CCCCN1CCN(c2ccccc2)CC1	-21.8
CC(=O)NC(CCCCNC(=O)N(C)N=O)C(=O)NCc1ccccc1 (configuration not stated)	-26.8
O=C1OC(=O)C2=C1C1C=CC2CC1	-9.05
OCC(O)C(O)C(O)C(SCc1ccccc1)SCc1ccccc1 (configuration not stated)	-6.2
CC(=O)Nc1cccc(Cc2ccccc2)c1	-6.3
c1csc(-c2cc(-c3cccs3)c(-c3ccsc3)s2)c1	-19.5
Nc1nc(N)c(N2CCN(Cc3ccccc3)CC2)c(Cl)n1	18.3
CC(=O)OC1CCC2(C)C(=CCC3C2CCC2(C)C3CCC23SCCS3)C1 (configuration not stated)	-2.9
CC1(C)N=C(N)N=C(N)N1c1ccc(CCCCc2ccccc2)cc1	50
N=C1N=Nc2nc(C(C(=O)c3ccc(O)cc3O)c3nc4n(c3O)C(=N)N=N4)c(O)n21 (configuration not stated)	-15.3
O=C(O)CCCc1ccccc1[N+](=O)[O-]	-18.9
C=C(C)CC1CC(=O)OC1=O (configuration not stated)	-9.8
C/C=C1/CN2CCc3c([nH]c4ccccc34)C2CC1C(Cc1c[n+]2c(c3[nH]c4ccccc4c13)CC1C(C(=O)OC)=COC(C)C1C2)C(=O)OC (configuration not stated)	-22.2
CC(C)(C)C1CCC2c3c([nH]c4ccccc34)C3C(=O)N(c4ccc(Br)cc4)C(=O)C3C2C1 (configuration not stated)	13.8
CNc1c(F)cc(C(=O)O)cc1F	-32.6
CC[N+](C)(C)CC(O)(O)C(F)F	-26.8
CCOC(=O)CNC(=O)NC	-6.25
COc1cc(C2C(C(=O)NCc3ccccc3)=C(C)NC(C)=C2C(=O)NCc2ccccc2)ccc1O	-7
C/C=C(\C)C(=O)N/N=C\C=C\c1ccccc1	-16.1
NC(CS)C(=O)NCCNCCNc1ccc(NCCNCCNC(=O)C(N)CS)c2c1C(=O)c1c(O)ccc(O)c1C2=O (configuration not stated)	-10.5
